The reported measurements were obtained from a protein production outcome set (Wang et al. 2014).

- protocol description: label from the status in PepcDB records
assay readout: protein production

item_sequence=RYTNILVPVDSSDAAQAAFTEAVNIAQRHQANLTALYVVDDSAYHTPALDPVLSELLDAEAAHAKDAMRQRQQFVATTSAPNLKTEISYGIPKHTIEDYAKQHPEIDLIVLGATGTNSPHRVAVGSTTSYVVDHAPCNVIVIR experimental_result="not failed"
item_sequence=MKKGIQPLKWKDVPALAVLGFFSVTLHHLLINTGQQYVTAVASSILSQSIPLFTFIISALLFKEQISFKQWLCILLGLCGAVLVVSGDHGFGMPSPYSLLIVLAAIAWGLYFNLYKKFALNYDALSMMCYIIWFGTLPLLFYSAHLPSEILHATWQANMSVVLLGIFPSAMAYVLWGYVLKNMPLTIASNFLYCSPIVAMSLAVLFLNEKPSIIVLLGGVIIVGSLVWMNWGRKK experimental_result=failed
item_sequence=MSGLLSIFDLSDERGVLRTSIAVTFVISFLGIGFGLFSGSFSIVFDGVYSLIDAGMSLLSLIVVNLITSYAVADHLSRKLRERFSFGLWHLEPMVLGLNGILLISAALYALVTAIGSLLSGGRDLEFGSALIYAAVTVIACAGIAAVEWRANRKIGSEFLRLDVRGWIMSAGISAALLIAFMIGLAVQGTSWQWISPYIDPAVLAAVCVLIIPLPVSTVRQALADIFLVTPVDLKKHLDTVAAAFVAKHGFVSYRAYVARVGRSKEIELYFIVPADAPARTIGEWDMLRDEIGDLVGDDGPNRWLTVVFTGDPEWAE experimental_result=failed
item_sequence=MNTTVEKQQIITSNTEQWKMYSKLEGKEYQIHISKPKQPAPDSGYPVIYVLDGNAFFQTFHEAVKIQSVRAEKTGVSPAIIVGVGYPIEGAFSGEERCYDFTPSVISKDAPLKPDGKPWPKTGGAHNFFTFIEEELKPQIEKNFEIDKGKQTLFGHSLGGLFALHILFTNLNAFQNYFISSPSIWWNNKSVLEKEENLIIELNNAKFETGVFLTVGSLEREHMVVGANELSERLLQVNHDKLKFKFYEAEGENHASVVPTSLSKGLRFISYV experimental_result="not failed"
item_sequence=MSLEGLSINFATVRQGGNFGAIVDACLAHGITAISPWREQVHGVGLAEAARIVEQNGLRLSGHCRGGFFPAIDADGRRRAIEDNKRAVDEAAAMKADCLVLVVGGLPAGSRDLKGARQMVEDGMAKLLPYARAAGVPLAIEPLHPFYAAERACFNTLKQSLDLCDRLGAGTGVAIDVYHVWWDPELEEQVARAGRNGQILAHHICDWLVPTTDPLNDRGMMGDGVIDLKAFRAMIEAAGFHGPQEVEIFSHRWQARPMDEVLATVVERFKTVC experimental_result=failed
item_sequence=MGLKNIVVFVEPSNAGATRARYAVELARRHGAHLIGIFVASSDGPIPANAYVRGRDAMRRLIELHDANAIETTSVASRNFNTATNSADITYEFRIIREIESDDTKLHCLHADLVIVGHPRPGGLPLYSSAEGLLLATGIPFLIVPDGWPSGAVAQRVLLAWNASREARRAITDSLPLLSAAQSVSIVVIDSAKNRLHGENPGADVAVYLSRHGAHVTTEQIDSNGSPIADVILQHAVHGGFDLIVLGAYSHARVREAVFGGVTRSLLKLATIPMLIAH experimental_result=failed
